target: Human HDAC6 (Homo sapiens (Human)); experiment: HDAC6 enzymatic activity assay (Caliper endpoint or fluorogenic format); format: biochemical; conditions: ratio of HDAC8 IC50/HDAC6 IC50
Sequence (Q9UBN7 whole entry): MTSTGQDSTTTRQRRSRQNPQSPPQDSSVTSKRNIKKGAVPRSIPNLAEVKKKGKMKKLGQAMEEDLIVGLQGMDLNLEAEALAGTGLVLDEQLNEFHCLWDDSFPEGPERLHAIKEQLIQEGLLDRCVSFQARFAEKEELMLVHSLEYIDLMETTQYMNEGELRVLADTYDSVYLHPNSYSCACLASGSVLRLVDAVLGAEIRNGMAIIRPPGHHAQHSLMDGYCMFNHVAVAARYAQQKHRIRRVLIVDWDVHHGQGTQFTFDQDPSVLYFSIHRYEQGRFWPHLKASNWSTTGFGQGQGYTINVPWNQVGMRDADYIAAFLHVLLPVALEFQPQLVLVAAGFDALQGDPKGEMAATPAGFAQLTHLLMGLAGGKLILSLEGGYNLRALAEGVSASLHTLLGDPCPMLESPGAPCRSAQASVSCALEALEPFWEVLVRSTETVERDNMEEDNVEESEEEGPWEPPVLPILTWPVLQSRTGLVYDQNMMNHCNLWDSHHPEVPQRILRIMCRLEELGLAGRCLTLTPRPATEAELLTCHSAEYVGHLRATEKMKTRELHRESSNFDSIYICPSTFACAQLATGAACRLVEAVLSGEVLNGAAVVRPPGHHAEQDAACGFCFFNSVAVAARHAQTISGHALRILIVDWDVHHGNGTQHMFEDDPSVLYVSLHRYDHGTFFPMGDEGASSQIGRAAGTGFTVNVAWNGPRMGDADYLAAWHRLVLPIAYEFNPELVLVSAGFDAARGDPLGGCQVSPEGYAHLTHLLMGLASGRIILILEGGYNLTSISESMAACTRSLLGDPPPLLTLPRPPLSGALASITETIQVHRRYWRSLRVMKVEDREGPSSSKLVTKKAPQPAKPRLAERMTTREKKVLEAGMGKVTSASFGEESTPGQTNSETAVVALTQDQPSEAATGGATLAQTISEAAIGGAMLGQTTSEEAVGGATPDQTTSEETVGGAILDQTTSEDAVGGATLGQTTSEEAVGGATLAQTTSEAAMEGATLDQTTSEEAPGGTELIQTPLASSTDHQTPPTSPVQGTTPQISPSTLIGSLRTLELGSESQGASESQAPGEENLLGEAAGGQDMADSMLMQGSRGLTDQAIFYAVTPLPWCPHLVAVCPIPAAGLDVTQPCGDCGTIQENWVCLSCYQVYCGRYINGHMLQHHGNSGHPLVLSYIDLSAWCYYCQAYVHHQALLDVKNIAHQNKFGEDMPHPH
ASSAY_ENDPOINT: Selectivity (6 v 8) (fold)

Please look at CCn1ccc(OCc2ccc(-c3nnc(C(F)F)o3)cn2)n1 [Compound 69] and tell me its recorded Selectivity (6 v 8) (fold) on Human HDAC6 (Homo sapiens (Human)).
IV (IV: >100-1000)

Please look at Cn1nc(-c2nc3ccc(OCc4ccc(-c5nnc(C(F)F)o5)cn4)cc3o2)ccc1=O [Compound 204] and tell me its recorded Selectivity (6 v 8) (fold) on Human HDAC6 (Homo sapiens (Human)).
V (V: >1000)

Please look at Fc1ccc(OCc2ccc(-c3nnc(C(F)F)o3)cn2)cc1 [Compound 12] and tell me its recorded Selectivity (6 v 8) (fold) on Human HDAC6 (Homo sapiens (Human)).
V (V: >1000)

Please look at FC(F)c1nnc(-c2ccc(COc3ccc4nccnc4c3)nc2)o1 [Compound 36] and tell me its recorded Selectivity (6 v 8) (fold) on Human HDAC6 (Homo sapiens (Human)).
V (V: >1000)

Please look at CCn1cnc2ccc(OCc3ccc(-c4nnc(C(F)F)o4)cn3)cc21 [Compound 202] and tell me its recorded Selectivity (6 v 8) (fold) on Human HDAC6 (Homo sapiens (Human)).
IV (IV: >100-1000)

New cases:
Please look at N#Cc1ccccc1OCc1ccc(-c2nnc(C(F)F)o2)cn1 [Compound 42] and tell me its recorded Selectivity (6 v 8) (fold) on Human HDAC6 (Homo sapiens (Human)).
V (V: >1000)

Please look at FC(F)c1nnc(-c2ccc(COc3ccnc(N4CCOCC4)n3)nc2)o1 [Compound 99] and tell me its recorded Selectivity (6 v 8) (fold) on Human HDAC6 (Homo sapiens (Human)).
V (V: >1000)

Please look at FC(F)c1nnc(-c2ccc(COc3cccc4cnccc34)nc2)o1 [Compound 35] and tell me its recorded Selectivity (6 v 8) (fold) on Human HDAC6 (Homo sapiens (Human)).
V (V: >1000)

Please look at NC(=O)c1ccc(OCc2ccc(-c3nnc(C(F)F)o3)cn2)cc1 [Compound 122] and tell me its recorded Selectivity (6 v 8) (fold) on Human HDAC6 (Homo sapiens (Human)).
V (V: >1000)

Please look at Cc1cccc(OCc2ccc(-c3nnc(C(F)F)o3)cn2)n1 [Compound 72] and tell me its recorded Selectivity (6 v 8) (fold) on Human HDAC6 (Homo sapiens (Human)).
V (V: >1000)

Please look at N#Cc1cc(F)ccc1OCc1ccc(-c2nnc(C(F)F)o2)cn1 [Compound 45] and tell me its recorded Selectivity (6 v 8) (fold) on Human HDAC6 (Homo sapiens (Human)).
V (V: >1000)

Please look at N#Cc1ccc(OCc2ccc(-c3nnc(C(F)F)o3)cn2)cc1F [Compound 52] and tell me its recorded Selectivity (6 v 8) (fold) on Human HDAC6 (Homo sapiens (Human)).
V (V: >1000)
